settings: 333.15 K; 101.33 kPa; Liquid; Vibrating tube method
measured-property: mass density (kg/m3)

{"columns": ["compound", "numeric-value"],
 "data": [
  ["CCn1cc[n+](C)c1.O=S(=O)([O-])O [1-ethyl-3-methylimidazolium hydrogen sulfate]", 1344.6],
  ["CCCCCCOS(=O)(=O)[O-].CC[n+]1ccn(C)c1 [3-ethyl-1-methyl-1H-imidazolium hexyl sulfate]", 1107.27],
  ["CCCCOS(=O)(=O)[O-].CC[n+]1ccn(C)c1 [3-ethyl-1-methylimidazolium butyl sulfate]", 1152.85],
  ["CCCCCCCCOS(=O)(=O)[O-].CCn1cc[n+](C)c1 [1-ethyl-3-methylimidazolium octyl sulfate]", 1072.58],
  ["CCn1cc[n+](C)c1.COS(=O)(=O)[O-] [1-ethyl-3-methylimidazolium methylsulfate]", 1262.4]
]}
